Cited source for all entries: patent US10385024B2

Target: Rat NHE-3 (Rattus norvegicus)
Construct: expressed in transfected cells; host or cells: Opossum kidney (OK) cells (ATCC), transfected by electroporation
Sequence (P26433 29-831): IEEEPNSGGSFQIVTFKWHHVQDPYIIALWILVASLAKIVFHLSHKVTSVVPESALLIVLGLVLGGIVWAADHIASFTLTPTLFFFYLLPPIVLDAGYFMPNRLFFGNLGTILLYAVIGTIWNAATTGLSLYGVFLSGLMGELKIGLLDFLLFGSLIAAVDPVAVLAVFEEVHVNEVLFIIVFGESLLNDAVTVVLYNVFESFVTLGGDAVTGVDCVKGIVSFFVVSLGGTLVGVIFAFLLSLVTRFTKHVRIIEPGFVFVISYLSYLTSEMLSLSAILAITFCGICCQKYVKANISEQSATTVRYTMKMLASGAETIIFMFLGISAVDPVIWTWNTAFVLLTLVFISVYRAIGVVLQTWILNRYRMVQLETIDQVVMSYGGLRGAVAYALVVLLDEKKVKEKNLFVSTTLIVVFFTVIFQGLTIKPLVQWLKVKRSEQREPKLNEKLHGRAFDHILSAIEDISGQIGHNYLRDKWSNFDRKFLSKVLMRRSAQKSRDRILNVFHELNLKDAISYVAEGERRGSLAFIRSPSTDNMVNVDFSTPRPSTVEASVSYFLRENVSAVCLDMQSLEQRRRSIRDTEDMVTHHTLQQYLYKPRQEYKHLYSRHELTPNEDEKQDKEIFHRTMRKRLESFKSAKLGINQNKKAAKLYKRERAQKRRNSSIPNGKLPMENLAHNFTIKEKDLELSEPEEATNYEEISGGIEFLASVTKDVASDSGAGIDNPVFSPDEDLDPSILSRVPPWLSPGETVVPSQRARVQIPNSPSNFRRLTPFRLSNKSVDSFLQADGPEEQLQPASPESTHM
Experiment: Cell-based assay of NHE-3 activity (persistent inhibition, after washout)
Details: OK cells with rat NHE-3 gene, 60 min incubation, recovery initiated 40 min after compound washout
experimental readout: Rat NHE3 pIC50 (persistent)

molecule | Rat NHE3 pIC50 (persistent)
CN1Cc2c(Cl)cc(Cl)cc2[C@H](c2cccc(S(=O)(=O)NCCOCCOCCNC(=O)CCC(CCC(=O)NCCOCCOCCNS(=O)(=O)c3cccc([C@@H]4CN(C)Cc5c(Cl)cc(Cl)cc54)c3)(CCC(=O)NCCOCCOCCNS(=O)(=O)c3cccc([C@@H]4CN(C)Cc5c(Cl)cc(Cl)cc54)c3)NC(=O)CCCC(=O)O)c2)C1 | C (C NHE3 pIC50 > 7)
CN1CCN(C(=O)NC(CCC(=O)NCCOCCOCCNS(=O)(=O)c2cccc([C@@H]3CN(C)Cc4c(Cl)cc(Cl)cc43)c2)(CCC(=O)NCCOCCOCCNS(=O)(=O)c2cccc([C@@H]3CN(C)Cc4c(Cl)cc(Cl)cc43)c2)CCC(=O)NCCOCCOCCNS(=O)(=O)c2cccc([C@@H]3CN(C)Cc4c(Cl)cc(Cl)cc43)c2)CC1 | C (C NHE3 pIC50 > 7)
CN(C)CC(=O)NC(CCC(=O)N(C)CCOCCOCCNS(=O)(=O)c1cccc([C@@H]2CN(C)Cc3c(Cl)cc(Cl)cc32)c1)(CCC(=O)N(C)CCOCCOCCNS(=O)(=O)c1cccc([C@@H]2CN(C)Cc3c(Cl)cc(Cl)cc32)c1)CCC(=O)N(C)CCOCCOCCNS(=O)(=O)c1cccc([C@@H]2CN(C)Cc3c(Cl)cc(Cl)cc32)c1 | C (C NHE3 pIC50 > 7)
CN1Cc2c(Cl)cc(Cl)cc2[C@H](c2cccc(S(=O)(=O)NCCOCCOCCNC(=O)NCCCC(N)(CCCNC(=O)NCCOCCOCCNS(=O)(=O)c3cccc([C@@H]4CN(C)Cc5c(Cl)cc(Cl)cc54)c3)CCCNC(=O)NCCOCCOCCNS(=O)(=O)c3cccc([C@@H]4CN(C)Cc5c(Cl)cc(Cl)cc54)c3)c2)C1 | C (C NHE3 pIC50 > 7)
CN1Cc2c(Cl)cc(Cl)cc2[C@H](c2cccc(S(=O)(=O)NCCOCCOCCNC(=O)NCCC[N+](C)(CCCNC(=O)NCCOCCOCCNS(=O)(=O)c3cccc([C@@H]4CN(C)Cc5c(Cl)cc(Cl)cc54)c3)CCCNC(=O)NCCOCCOCCNS(=O)(=O)c3cccc([C@@H]4CN(C)Cc5c(Cl)cc(Cl)cc54)c3)c2)C1 | C (C NHE3 pIC50 > 7)

// lookup Rat NHE3 pIC50 (persistent) for `CN1Cc2c(Cl)cc(Cl)cc2[C@H](c2cccc(S(=O)(=O)NCCOCCOCCNC(=O)CCC(CCC(=O)NCCOCCOCCNS(=O)(=O)c3cccc([C@@H]4CN(C)Cc5c(Cl)cc(Cl)cc54)c3)(CCC(=O)NCCOCCOCCNS(=O)(=O)c3cccc([C@@H]4CN(C)Cc5c(Cl)cc(Cl)cc54)c3)NC(=O)NC(CO)CO)c2)C1`
C (C NHE3 pIC50 > 7)

* * *

Molecular target: human NHE-3 (Homo sapiens, UniProt P48764)
Construct: expressed in transfected cells; host or cells: Opossum kidney (OK) cells (ATCC), transfected by electroporation
Sequence (P48764 26-834): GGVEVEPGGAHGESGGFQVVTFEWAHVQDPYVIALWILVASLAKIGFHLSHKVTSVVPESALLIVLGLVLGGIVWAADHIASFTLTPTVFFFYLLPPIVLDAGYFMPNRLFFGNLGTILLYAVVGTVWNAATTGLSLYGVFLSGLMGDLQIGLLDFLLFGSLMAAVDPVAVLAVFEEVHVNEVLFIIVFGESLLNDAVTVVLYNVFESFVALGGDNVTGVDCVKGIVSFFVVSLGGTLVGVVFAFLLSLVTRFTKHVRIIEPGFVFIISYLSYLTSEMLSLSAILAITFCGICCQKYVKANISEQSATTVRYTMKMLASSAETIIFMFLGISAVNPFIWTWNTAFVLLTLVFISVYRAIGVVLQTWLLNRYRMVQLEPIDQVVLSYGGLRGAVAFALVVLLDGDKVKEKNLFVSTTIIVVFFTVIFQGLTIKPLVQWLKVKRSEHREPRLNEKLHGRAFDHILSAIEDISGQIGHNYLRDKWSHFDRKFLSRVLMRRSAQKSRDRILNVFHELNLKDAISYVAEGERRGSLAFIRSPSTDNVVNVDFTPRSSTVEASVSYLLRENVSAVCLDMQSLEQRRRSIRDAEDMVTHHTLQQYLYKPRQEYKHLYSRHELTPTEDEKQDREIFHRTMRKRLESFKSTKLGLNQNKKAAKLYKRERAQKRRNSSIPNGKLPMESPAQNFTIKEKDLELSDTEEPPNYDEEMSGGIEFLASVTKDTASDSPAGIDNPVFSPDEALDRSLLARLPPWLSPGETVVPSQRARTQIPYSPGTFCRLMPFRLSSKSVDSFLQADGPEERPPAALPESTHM
Test: Cell-based assay of NHE-3 activity (human NHE3 inhibition assay)
Details: OK cells with human NHE-3 gene, BCECF pH dye, 0-30 μM test compound
experimental readout: Human NHE3 pIC50

compound | target under test | result
CN1Cc2c(Cl)cc(Cl)cc2[C@H](c2cccc(S(=O)(=O)NCCOCCOCCNC(=O)NCCN(CCNC(=O)NCCOCCOCCNS(=O)(=O)c3cccc([C@@H]4CN(C)Cc5c(Cl)cc(Cl)cc54)c3)C(=O)CCOCCOCCOCCOCCOCCC(=O)N(CCNC(=O)NCCOCCOCCNS(=O)(=O)c3cccc([C@@H]4CN(C)Cc5c(Cl)cc(Cl)cc54)c3)CCNC(=O)NCCOCCOCCNS(=O)(=O)c3cccc([C@@H]4CN(C)Cc5c(Cl)cc(Cl)cc54)c3)c2)C1 [Example 59] | human NHE-3 (Homo sapiens, UniProt P48764) | C (C NHE3 pIC50 > 7)
CN1Cc2c(Cl)cc(Cl)cc2[C@H](c2cccc(S(=O)(=O)NCCOCCOCCNC(=O)CCC(CCC(=O)NCCOCCOCCNS(=O)(=O)c3cccc([C@@H]4CN(C)Cc5c(Cl)cc(Cl)cc54)c3)(CCC(=O)NCCOCCOCCNS(=O)(=O)c3cccc([C@@H]4CN(C)Cc5c(Cl)cc(Cl)cc54)c3)NC(=O)N3CCN(CCOCCO)CC3)c2)C1 [Example 33] | human NHE-3 (Homo sapiens, UniProt P48764) | C (C NHE3 pIC50 > 7)

* * *

Molecular target: human NHE-3 (Homo sapiens)
Construct: expressed in transfected cells; host or cells: Opossum kidney (OK) cells (ATCC), transfected by electroporation
Assay: Cell-based assay of NHE-3 activity (human NHE3 inhibition assay)
Conditions: OK cells with human NHE-3 gene, BCECF pH dye, 0-30 μM test compound; read-out: Human NHE3 pIC50 (converted)
experimental readout: IC50

The following compounds have reported results that may help.
molecule | result
CN1Cc2c(Cl)cc(Cl)cc2[C@H](c2cccc(S(=O)(=O)NCCOCCOCCNC(=O)NCCCN(CCCNC(=O)NCCOCCOCCNS(=O)(=O)c3cccc([C@@H]4CN(C)Cc5c(Cl)cc(Cl)cc54)c3)CCCNC(=O)NCCOCCOCCNS(=O)(=O)c3cccc([C@@H]4CN(C)Cc5c(Cl)cc(Cl)cc54)c3)c2)C1 | < 100 nM
CCCCCCCCCCC(=O)NC(CCC(=O)NCCOCCOCCOCCNS(=O)(=O)c1cccc([C@@H]2CN(C)Cc3c(Cl)cc(Cl)cc32)c1)(CCC(=O)NCCOCCOCCOCCNS(=O)(=O)c1cccc([C@@H]2CN(C)Cc3c(Cl)cc(Cl)cc32)c1)CCC(=O)NCCOCCOCCOCCNS(=O)(=O)c1cccc([C@@H]2CN(C)Cc3c(Cl)cc(Cl)cc32)c1 | 100 to 10000 nM

Shift focus to the following entry.
// lookup IC50 for `CCC(=O)NC(CCC(=O)NCCOCCOCCOCCNS(=O)(=O)c1cccc([C@@H]2CN(C)Cc3c(Cl)cc(Cl)cc32)c1)(CCC(=O)NCCOCCOCCOCCNS(=O)(=O)c1cccc([C@@H]2CN(C)Cc3c(Cl)cc(Cl)cc32)c1)CCC(=O)NCCOCCOCCOCCNS(=O)(=O)c1cccc([C@@H]2CN(C)Cc3c(Cl)cc(Cl)cc32)c1`
< 100 nM

* * *

Test: Pharmacokinetic evaluation in bile
Type: in vivo, Sprague-Dawley rats
Details: bile duct cannulated rats, oral gavage, nominal dose 30 mg/kg, bile collected over 24 h, mean of n=3
Description: Bile duct cannulated (BDC) Sprague-Dawley rats were dosed with test compounds by oral gavage and a single aliquot of bile was collected via cannula over the 24 h following dosing. […] After centrifugation, samples were diluted as appropriate in mobile phase and analyzed by LC-MS/MS. The concentrations of compounds in bile were determined by interpolation from a standard calibration curve prepared in rat bile from untreated BDC rats. […]
experimental readout: Concentration in Bile

The following molecules have reported results that may help.
molecule | Concentration in Bile
CN1Cc2c(Cl)cc(Cl)cc2[C@H](c2cccc(S(=O)(=O)NCCOCCOCCNC(=O)CCC(CCC(=O)NCCOCCOCCNS(=O)(=O)c3cccc([C@@H]4CN(C)Cc5c(Cl)cc(Cl)cc54)c3)(CCC(=O)NCCOCCOCCNS(=O)(=O)c3cccc([C@@H]4CN(C)Cc5c(Cl)cc(Cl)cc54)c3)NC(=O)COCC(=O)O)c2)C1 [Example 6] | 21 nM
CN1Cc2c(Cl)cc(Cl)cc2[C@H](c2cccc(S(=O)(=O)NCCOCCOCCNC(=O)NCCCC(N)(CCCNC(=O)NCCOCCOCCNS(=O)(=O)c3cccc([C@@H]4CN(C)Cc5c(Cl)cc(Cl)cc54)c3)CCCNC(=O)NCCOCCOCCNS(=O)(=O)c3cccc([C@@H]4CN(C)Cc5c(Cl)cc(Cl)cc54)c3)c2)C1 [Example 62] | 7 nM
CN1Cc2c(Cl)cc(Cl)cc2[C@H](c2cccc(S(=O)(=O)NCCOCCOCCNC(=O)NCCCN(CCCNC(=O)NCCOCCOCCNS(=O)(=O)c3cccc([C@@H]4CN(C)Cc5c(Cl)cc(Cl)cc54)c3)CCCNC(=O)NCCOCCOCCNS(=O)(=O)c3cccc([C@@H]4CN(C)Cc5c(Cl)cc(Cl)cc54)c3)c2)C1 [Example 43] | 6 nM
CN(C)CC(=O)NC(CCC(=O)NCCOCCOCCNS(=O)(=O)c1cccc([C@@H]2CN(C)Cc3c(Cl)cc(Cl)cc32)c1)(CCC(=O)NCCOCCOCCNS(=O)(=O)c1cccc([C@@H]2CN(C)Cc3c(Cl)cc(Cl)cc32)c1)CCC(=O)NCCOCCOCCNS(=O)(=O)c1cccc([C@@H]2CN(C)Cc3c(Cl)cc(Cl)cc32)c1 [Example 14] | 28 nM
CN1Cc2c(Cl)cc(Cl)cc2[C@H](c2cccc(S(=O)(=O)NCCOCCOCCNC(=O)NCCC(N)(CCNC(=O)NCCOCCOCCNS(=O)(=O)c3cccc([C@@H]4CN(C)Cc5c(Cl)cc(Cl)cc54)c3)CCNC(=O)NCCOCCOCCNS(=O)(=O)c3cccc([C@@H]4CN(C)Cc5c(Cl)cc(Cl)cc54)c3)c2)C1 [Example 46] | 3 nM

Shift focus to the following entry.
// lookup Concentration in Bile for CN1Cc2c(Cl)cc(Cl)cc2[C@H](c2cccc(S(=O)(=O)NCCOCCOCCNC(=O)CCC(CCC(=O)NCCOCCOCCNS(=O)(=O)c3cccc([C@@H]4CN(C)Cc5c(Cl)cc(Cl)cc54)c3)(CCC(=O)NCCOCCOCCNS(=O)(=O)c3cccc([C@@H]4CN(C)Cc5c(Cl)cc(Cl)cc54)c3)N(C)C)c2)C1 [Example 4]
45 nM
